experiment: NCI Yeast Anticancer Drug Screen. Data for the bub3 strain (AID 167); conditions: S. cerevisiae bub3 mutant strain, at 50.0 µM (retest, dose inferred, filed as 5.0), stronger effect = higher value
About 79,000 compounds went through this panel and 15% of them were active in at least one assay; those are over-represented in the sample as a whole. Activity calls are given as the source filed them. Cut-off read from the data, not from the text of the source: active = growth inhibition above about 70%; inactive = the rest.
The entries below come with measured growth inhibition values attached.

Example results:
>  <COMPOUND>
Clc1ccc(C(CCc2ccc(Br)cc2)Cn2ccnc2)c(Cl)c1 (stereo unspecified)

>  <growth inhibition>
99% (active)

$$$$
>  <COMPOUND>
O=[N+]([O-])c1ccc(CCCl)c(CCl)c1

>  <growth inhibition>
79% (active)

$$$$
>  <COMPOUND>
O=S(=O)(/C=C/c1cccnc1)/C=C/c1cccnc1

>  <growth inhibition>
3% (inactive)

$$$$
>  <COMPOUND>
CCCOC(=O)CSC#N

>  <growth inhibition>
98% (active)

$$$$
>  <COMPOUND>
Cc1ccc(S(=O)(=O)NC2(C=O)CCC(C(C)(C)C)CC2)cc1 (stereo unspecified)

>  <growth inhibition>
88% (active)

$$$$

# evaluate next
So, `CCCCCCCCCCCCCCCCNC(=O)/C(=C\c1ccccc1O)NC(=O)c1ccccc1` ? Its growth inhibition was 8% (inactive)

====

Test: NCI Yeast Anticancer Drug Screen. Data for the rad50 strain (AID 155);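 note: 0% = growth of vehicle-only cultures of the same strain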
Conditions: S. cerevisiae rad50 strain growth inhibition; at 50.0 µM
Experimental: Growth inhibition of yeast strains with defined genetic alterations is measured as a screen for potential anti-cancer activity. Selected strains with alterations in DNA damage repair or cell cycle control were exposed to compounds and growth inhibition was measured relative to vehicle treated controls. The strain used in this assay is rad50
The panel holds about 79,000 compounds, 15% with a hit somewhere; the sample as a whole holds those more often. Activity calls are given as the source filed them. Cut-off read from the data, not from the text of the source: active = growth inhibition above about 70%; inactive = the rest.
Your answer must be one of the following: 1 for active, 0 for inactive

>  <COMPOUND>
CCN(CC)CC(O)c1ccc2cc(Cl)c3ccccc3c2c1 (stereo unspecified)

>  <CLASS_LABEL>
1

$$$$

Problem: For this compound, state the assay outcome: C/C(=N/NC(=O)c1ccccc1S(N)(=O)=O)C(CN1CCCCC1)C(C1=C(O)C2C=CC=CC2OC1=O)c1ccccc1 (stereo unspecified)
Result: 1

Problem: Test call for this compound, please: `Cc1cc(C)n2nc(N)c(C#N)c2c1C#N`
Result: 0

Problem: Fill in: this test's call for `Cc1ccc(S(=O)(=O)NNc2nc(N3CCOCC3)nc(N3CCOCC3)n2)cc1` is ___
Result: 0

Problem: What classification did `CC(C)CCOc1ccc(/C=C\C(=O)O)cc1` end up with in this test?
Result: 0

Problem: Which result was noted for this compound in the test: `Cc1c2ccncc2cc2c1sc1ccncc12`
Result: 1

====

Here, each record is paired with measured growth inhibition data.
assay: NCI Yeast Anticancer Drug Screen. Data for the cln2 rad14 strain (AID 165);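 note: 0% = growth equal to vehicle treated cultures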; settings: S. cerevisiae cln2 rad14 strain, at 50.0 µM (retest, dose inferred, filed as 5.0), stronger effect = higher value
This is part of a sample that, as a whole, favours compounds with a hit. Of some 79,000 tested, about 15% had one in any assay. Active and inactive are the calls of the source. Cut-off read from the data, not from the text of the source: active = growth inhibition above about 70%; inactive = the rest.

The compound listed as `COc1cc(C(=O)CBr)c2ccc(Cl)cc2n1` shows growth inhibition equal to 97% (active)

Form field growth inhibition, entry `CN1CCN(CCn2c3c4ccccc4ccc3c3oc(=O)c4ccccc4c32)CC1` : 92% (active)

Briefly, growth inhibition measured for Cc1cc2c(cc1S(=O)(=O)O)C1C(C3C2C2(Cl)C(Cl)=C(Cl)C3(Cl)C2(Cl)Cl)C2(Cl)C(Cl)=C(Cl)C1(Cl)C2(Cl)Cl (centres undefined) : 84% (active)

Record summary for C=C1C(C2(C)C(OC(C)=O)CC(=O)OC(C)(COC(C)=O)C2CC(=O)OC)C(OC=O)C(OC(=O)C(O)C(C)CC)C2(C)C(c3ccoc3)CC(=O)C12O (centres undefined) : reported growth inhibition = 0% (inactive)

====

Assay: NCI Yeast Anticancer Drug Screen. Data for the bub3 strain (AID 167)
Settings: S. cerevisiae bub3 mutant strain, at 50.0 µM
Protocol: Growth inhibition of yeast strains with defined genetic alterations is measured as a screen for potential anti-cancer activity. Selected strains with alterations in DNA damage repair or cell cycle control were exposed to compounds and growth inhibition was measured relative to vehicle treated controls. The strain used in this assay is bub3
This is part of a sample that, as a whole, favours compounds with a hit. Of some 79,000 tested, about 15% had one in any assay. The source made the active and inactive calls. No stated cut-off is given here; in the data, active means growth inhibition above about 70%; inactive means the rest.
Could you please pick one outcome from this set? Yes for active, No for inactive

Example cases with answers are listed next.
>  <COMPOUND>
CC(=O)/C(=C\c1ccc(N(C)C)cc1)C(C)=[N+](C)C(=O)c1c(/[N+](C)=C(C)\C(=C\c2ccc(N(C)C)cc2)C(C)=O)ncn1C

>  <CLASS_LABEL>
No

$$$$
>  <COMPOUND>
Cc1ccc(S(=O)(=O)NCCSCCSCCNS(=O)(=O)c2ccc(C)cc2)cc1

>  <CLASS_LABEL>
Yes

$$$$
>  <COMPOUND>
CCCCCCCCNc1nc(Cl)nc2c1cnn2C

>  <CLASS_LABEL>
No

$$$$
>  <COMPOUND>
COC1=Nc2ccccc2/C=C\c2ccccc21

>  <CLASS_LABEL>
No

$$$$
>  <COMPOUND>
C(=N\Nc1c2ccccc2nc2ccccc12)/c1ccc2c(c1)OCO2

>  <CLASS_LABEL>
Yes

$$$$
>  <COMPOUND>
COc1ccc2c(c1)C(O)=C(CC=C(C)C)C(=O)C2=O

>  <CLASS_LABEL>
No

$$$$
>  <COMPOUND>
O=C(Nc1cccc(Cl)c1)OCCOC(=O)Nc1cccc(Cl)c1

>  <CLASS_LABEL>
Yes

$$$$
>  <COMPOUND>
Cc1ccc(S(=O)(=O)NNC(C[N+](=O)[O-])c2ccccc2)cc1 (stereo not given)

>  <CLASS_LABEL>
Yes

$$$$

Problem: Kindly provide the recorded test outcome for the following compound: `c1nc2nc(N3CCOCC3)nc(N3CCCCC3)c2[nH]1`
Result: No

Problem: What classification did `CCC[CH2][Sn]([CH2]CCC)([O]C(=O)c1cc(OC)c(OC)c(OC)c1)[O]C(=O)c1cc(OC)c(OC)c(OC)c1` end up with in this test?
Result: Yes

====

test: NCI Yeast Anticancer Drug Screen. Data for the mec2-1 strain (AID 157); details: S. cerevisiae mec2-1 strain, at 5.0 µM (retest, dose inferred, filed as 0.5), stronger effect = higher value
About 79,000 compounds went through this panel and 15% of them were active in at least one assay; those are over-represented in the sample as a whole.
Measured growth inhibition accompanies every entry in the list below.
Number in %, nothing else.

>  <COMPOUND>
CCCCN(CCCC)CC(O)c1cc(-c2ccc(Cl)cc2)nc2c(C)cccc12 (stereo not given)

>  <growth inhibition, %>
2

$$$$
>  <COMPOUND>
O/N=C(/Cc1nc2cc(Cl)c(Cl)cc2nc1C/C(=N/O)c1ccncc1)c1ccncc1

>  <growth inhibition, %>
11

$$$$

What the record says about `CCOC(=O)CC1=NC(=Nc2cc(Cl)ccc2Cl)SC1` : growth inhibition is 23

growth inhibition recorded for this compound, C=CC1(C)CCC2C(=CCC3C(C)(COC4OC(CO)C(O)C(O)C4O)C(O)CCC23C)C1 (stereo not given) , is -1

Sure, the documented growth inhibition for O=C1C(Br)CCC1(c1ccccc1)c1ccccc1 (stereo not given) is 6

====

experiment: NCI Yeast Anticancer Drug Screen. Data for the bub3 strain (AID 167); conditions: S. cerevisiae bub3 mutant strain, at 50.0 µM (retest, dose inferred, filed as 5.0)
This is part of a sample that, as a whole, favours compounds with a hit. Of some 79,000 tested, about 15% had one in any assay. The source made the active and inactive calls. No stated cut-off is given here; in the data, active means growth inhibition above about 70%; inactive means the rest.
I would appreciate it if you answered using one of these outcomes: active, inactive

>  <COMPOUND>
ClC1c2ccccc2Cc2cccnc21 (configuration not stated)

>  <CLASS_LABEL>
inactive

$$$$
>  <COMPOUND>
CC1=C(C(=O)Nc2ccccc2)C(c2ccc(Cl)c(Cl)c2)C(C(=O)Nc2ccccc2)=C(C)N1

>  <CLASS_LABEL>
inactive

$$$$
>  <COMPOUND>
O=C1c2ccccc2C(=O)c2c1cccc2[N+](=O)[O-]

>  <CLASS_LABEL>
active

$$$$
>  <COMPOUND>
CC(=O)NC(CCC(=O)O)C(=O)O.[NH-]C1CCCCC1[NH-].[Pt+2] (configuration not stated)

>  <CLASS_LABEL>
active

$$$$

Problem: What classification did `CC(C)c1ccc(CN(CCO)Cc2ccc(C(C)C)cc2)cc1` end up with in this test?
Result: active

Problem: What was the test verdict on O=C1CC2Sc3ccccc3N=C2N1c1ccc(Cl)cc1Cl (configuration not stated) ?
Result: active

Problem: Each compound tested received a call. Report the one for CC12CCC(O)CC1=CCC1C2CCC2(C)C(NC(=O)C(Cc3ccc(O)cc3)NC(=O)OCc3ccccc3)CCC12 (configuration not stated) .
Result: active

Problem: Recorded call for `CCCCCN(CCCCC)CCCNc1ccc(C)c2sc3ccccc3c(=O)c12` ?
Result: active

Problem: Assay outcome for `C/C(=N\NC(=S)NNC(=S)N1CCCc2ccccc21)c1ccccn1` : what was it?
Result: active

Problem: Each compound tested received a call. Report the one for `NC(=S)Nc1cccc(C(F)(F)F)c1` .
Result: active

Problem: I'd appreciate the recorded outcome for `CCN(CC)CCNC(=O)c1ccc2c(c1O)C(=O)c1ccccc1C2=O` from this test.
Result: inactive

Problem: Tell me the recorded outcome of this test for `Cc1cccc(/C=N/Nc2ccccn2)n1` .
Result: inactive

Problem: Short answer needed: outcome of this test for `COc1ccc(/C=C2\Sc3scc(-c4ccc([N+](=O)[O-])cc4)[n+]3C2=O)cc1OC` ?
Result: inactive

Problem: // outcome(item) with item = `O=C(C(Cl)Cl)N(O)c1ccccc1OCc1ccccc1`
Result: inactive

Problem: Could you please tell me the result logged for `CC(C)(C)c1ccc2c(c1)CNCCNCc1cc(C(C)(C)C)ccc1OCC1(CO2)COc2ccc(C(C)(C)C)cc2CNCCNCc2cc(C(C)(C)C)ccc2OC1` in this assay?
Result: active

Problem: Write down the call the test reported for this compound. Item: `CCc1cc2nc3c(=O)[nH]c(=O)nc-3n(CCN(CCO)CCO)c2cc1CC`
Result: inactive

Problem: Please share the test call associated with `CCOC(=O)/C(=C\c1ccccc1)C(=O)CCN1CCOCC1` .
Result: active

Problem: Could you check what this test reported for `c1cc(Nc2ccc(Nc3ccc(CN4CCCCC4)cc3)cc2)ccc1CN1CCCCC1` ?
Result: active

Problem: Per the records of this test, what outcome belongs to `COc1ccc(C2=C(Cl)C(=O)N(c3ccccc3C)C(=O)C2(Cl)Cl)cc1` ?
Result: active

Reference source: PubChem BioAssay (NCI)
